Data origin, for the record: paper PMC6930500

Molecular target: human DOR (Homo sapiens)
Construct: expressed in transfected cells; cell lines provided by Professor Lawrence Toll
Sequence (P41143 whole entry): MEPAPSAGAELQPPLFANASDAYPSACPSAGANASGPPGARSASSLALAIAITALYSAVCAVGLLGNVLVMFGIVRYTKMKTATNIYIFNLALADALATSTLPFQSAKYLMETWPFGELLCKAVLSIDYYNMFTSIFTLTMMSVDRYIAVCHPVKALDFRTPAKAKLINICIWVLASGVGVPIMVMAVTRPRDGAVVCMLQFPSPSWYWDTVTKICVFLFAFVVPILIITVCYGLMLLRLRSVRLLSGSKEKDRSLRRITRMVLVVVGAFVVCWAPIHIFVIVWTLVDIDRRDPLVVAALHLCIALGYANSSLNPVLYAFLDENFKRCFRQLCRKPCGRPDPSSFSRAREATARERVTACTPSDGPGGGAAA
Assay: [35S]-GTPγS binding stimulation, DOR
Assay type: biochemical
Conditions: versus 10 µM standard agonist DPDPE; mean (SEM); * n = 2; dns = average maximal stimulation <10% at up to 10 µM
Measure name: % Stimulation DOR

{"Compound": "Cc1cc(O)cc(C)c1C[C@H](N)C(=O)N1CCc2ccc(Cc3cccc(O)c3)cc2C1 [Compound 8f]", "Tested target": "human DOR (Homo sapiens)", "Value": "dns *"}
{"Compound": "Cc1cc(O)cc(C)c1C[C@H](N)C(=O)N1CCc2ccc(CN3Cc4ccccc4C3)cc2C1 [Compound 8z]", "Tested target": "human DOR (Homo sapiens)", "Value": "dns *"}
{"Compound": "Cc1cc(O)cc(C)c1C[C@H](N)C(=O)N1CCc2ccc(Cc3ccccc3O)cc2C1 [Compound 8b]", "Tested target": "human DOR (Homo sapiens)", "Value": "dns *"}
{"Compound": "Cc1cc(O)cc(C)c1C[C@H](N)C(=O)N1CCc2ccc(CN3CCCC3)cc2C1 [Compound 8m]", "Tested target": "human DOR (Homo sapiens)", "Value": "dns *"}
{"Compound": "Cc1cc(O)cc(C)c1C[C@H](N)C(=O)N1CCc2ccc(Cc3cccc(C(F)(F)F)c3)cc2C1 [Compound 8g]", "Tested target": "human DOR (Homo sapiens)", "Value": "dns"}
{"Compound": "Cc1cc(O)cc(C)c1C[C@H](N)C(=O)N1CCc2ccc(Cc3cccc4cnccc34)cc2C1 [Compound 8s]", "Tested target": "human DOR (Homo sapiens)", "Value": "dns"}
{"Compound": "Cc1cc(O)cc(C)c1C[C@H](N)C(=O)N1CCc2ccc(Cc3cccc4ccncc34)cc2C1 [Compound 8r]", "Tested target": "human DOR (Homo sapiens)", "Value": "dns *"}
{"Compound": "Cc1cc(O)cc(C)c1C[C@H](N)C(=O)N1CCc2ccc(Cc3ccccc3C#N)cc2C1 [Compound 8d]", "Tested target": "human DOR (Homo sapiens)", "Value": "dns"}
